Entry source: ChEMBL document CHEMBL3272031

Entries with their measured log(1/C), system Dihydrofolate reductase (Rattus norvegicus):
MEASURED PARAMETER: log(1/C)

INSERT INTO measurements (compound_smiles, reported) VALUES
  ('Nc1nc(N)c2c(Cl)c(NC(=O)Cc3cccc(Br)c3)ccc2n1', 8.12),
  ('Nc1nc(N)c2c(n1)CCCC2', 5.13),
  ('Nc1nc(O)nc2ccc(Sc3ccc4ccccc4c3)cc12', 5.77),
  ('Nc1nc(S)c2cc(Sc3ccc4ccccc4c3)ccc2n1', 6.64),
  ('Cc1cccc2nc(N)nc(N)c12', 6.09),
  ('O=c1[nH]c(=O)c2cc(Sc3ccc4ccccc4c3)ccc2[nH]1', 5.07),
  ('Nc1nc(O)c2c(Sc3ccc4ccccc4c3)cccc2n1', 6.15),
  ('Nc1nc(N)c2c(S(=O)(=O)c3ccc4ccccc4c3)cccc2n1', 4.82),
  ('Nc1nc(O)c2cc(S(=O)(=O)c3ccc4ccccc4c3)ccc2n1', 7.96),
  ('Nc1nc(N)c2cc(Sc3ccc4ccccc4c3)ccc2n1', 8.15),
  ('CC(=O)Nc1nc(O)c2cc(S(=O)(=O)c3ccc4ccccc4c3)ccc2n1', 6.11),
  ('Nc1nc(O)nc2ccccc12', 4.02);
